System name: Cytochrome P450 2C19 (Homo sapiens) (UniProt P33261)
Sequence (P33261 whole entry, looked up): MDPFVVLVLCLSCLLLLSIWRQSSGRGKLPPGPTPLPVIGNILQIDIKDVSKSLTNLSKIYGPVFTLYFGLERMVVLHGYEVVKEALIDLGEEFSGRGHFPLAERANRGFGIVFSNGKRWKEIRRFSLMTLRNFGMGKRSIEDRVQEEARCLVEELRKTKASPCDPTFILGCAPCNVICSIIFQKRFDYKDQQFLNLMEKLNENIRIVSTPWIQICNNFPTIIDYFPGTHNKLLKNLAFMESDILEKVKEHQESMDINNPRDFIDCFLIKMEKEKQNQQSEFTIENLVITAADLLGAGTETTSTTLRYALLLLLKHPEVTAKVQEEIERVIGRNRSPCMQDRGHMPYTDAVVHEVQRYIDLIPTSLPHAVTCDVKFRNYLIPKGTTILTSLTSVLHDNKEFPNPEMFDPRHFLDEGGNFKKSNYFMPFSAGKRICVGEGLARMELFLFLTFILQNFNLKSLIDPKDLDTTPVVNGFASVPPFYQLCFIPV
Test protocol: blockers of cytochrome P450 2C19 activity – biochemical, luminescence, ADME assay, primary screen (AID 778);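 further: plate controls were negative control wells for no effect and 2.5 mM tranylcypromine positive control for full effect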
Condition notes: CYP2C19 Supersomes, luciferin-H EGE luminescence, 30 min; at 5 µM; stronger effect = higher value
About 20,000 (21%) of roughly 96,000 compounds were called active. Not all results are given here.
Property: inhibition

Answered examples (8):
                                   compound                               system_name   measured_result
0  CCOCCCNC(=O)C(NC(=O)CNC(=O)c1ccccc1)c1ccc(C)cc1 (stereo unspecified)  Cytochrome P450 2C19 (Homo sapiens) (UniProt P33261)  -8.2% (inactive)
1  CC(C)NC(=O)C(=O)NCCN1CCN(S(=O)(=O)c2ccc(Cl)cc2)CC1  Cytochrome P450 2C19 (Homo sapiens) (UniProt P33261)   7.4% (inactive)
2     COCc1nnc(NC(=O)CS(=O)(=O)Cc2ccccc2)s1  Cytochrome P450 2C19 (Homo sapiens) (UniProt P33261)   1.9% (inactive)
3    OCCNc1nc2ccccc2n1-c1ncnc2sc3c(c12)CCC3  Cytochrome P450 2C19 (Homo sapiens) (UniProt P33261)    -6% (inactive)
4  Cc1nc(SCC(=O)Nc2cc(C)on2)c2c(C)c(C)sc2n1  Cytochrome P450 2C19 (Homo sapiens) (UniProt P33261)   9.2% (inactive)
5  CSc1nc(C)cc(SC(C(C)=O)C(=O)Nc2ccccc2)n1 (stereo unspecified)  Cytochrome P450 2C19 (Homo sapiens) (UniProt P33261)  11.6% (inactive)
6               Cc1ccc(C(=O)N2CCCCCC2)cc1Br  Cytochrome P450 2C19 (Homo sapiens) (UniProt P33261)  26.6% (inactive)
7     O=c1oc2c(CN3CCCCC3)c(O)ccc2c2c1CCCCC2  Cytochrome P450 2C19 (Homo sapiens) (UniProt P33261)   3.9% (inactive)

[ask] Please indicate recorded inhibition of COc1ccc(CNC(=O)C2CCC(CNc3c(N4CCOCC4)c(=O)c3=O)CC2)cc1 (stereo unspecified) measured with Cytochrome P450 2C19 (Homo sapiens) (UniProt P33261).
[reply] -12.8% (inactive)

[ask] Please indicate recorded inhibition of CC1(C)CC(=O)C=C(NCc2ccncc2)C1 measured with Cytochrome P450 2C19 (Homo sapiens) (UniProt P33261).
[reply] 31.5% (inactive)

[ask] Please indicate recorded inhibition of CC(=O)Cc1nsc(NC(=O)c2csc3c2CCCC3)n1 measured with Cytochrome P450 2C19 (Homo sapiens) (UniProt P33261).
[reply] 42.6% (inactive)

* * *

System name: Cytochrome P450 2C19 (Homo sapiens) (UniProt P33261)
Test protocol: blockers of cytochrome P450 2C19 activity – biochemical, luminescence, ADME assay, primary screen (AID 778);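 further: plate controls were negative control wells for no effect and 2.5 mM tranylcypromine positive control for full effect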
Condition notes: CYP2C19 Supersomes, luciferin-H EGE luminescence, 30 min; at 5 µM; stronger effect = higher value
Hit rate of the full screen: of about 96,000 compounds, about 20,000 (21%) were called active. A selection follows.
Property: inhibition (%)
Expressed in %, but write only the number.

Answered examples (5):
                                   molecule                               system_name  measured_result
0   Cc1nc2cc(-c3ccc(F)cc3)nn2c(N2CCOCC2)c1C  Cytochrome P450 2C19 (Homo sapiens) (UniProt P33261)              5.1
1         CCCCn1nnnc1NCc1cc(OC)c(OC)c(OC)c1  Cytochrome P450 2C19 (Homo sapiens) (UniProt P33261)             79.8
2  O=C(NC12CC3CC(CC(C3)C1)C2)N1CCCC(CO)C1 (centres undefined)  Cytochrome P450 2C19 (Homo sapiens) (UniProt P33261)              6.5
3  Cc1ccc(-n2c(=O)c(C#N)cc3c(=O)n4ccccc4nc32)cc1C  Cytochrome P450 2C19 (Homo sapiens) (UniProt P33261)              6.5
4           Cc1nc(C)c(C(=O)Nc2cccc(C)c2C)o1  Cytochrome P450 2C19 (Homo sapiens) (UniProt P33261)            -14.2

[ask] Please indicate recorded inhibition of O=c1c2ccccc2nc(N/N=C/c2ccccc2)n1O measured with Cytochrome P450 2C19 (Homo sapiens) (UniProt P33261).
[reply] -14.2

[ask] Please indicate recorded inhibition of Cc1ccnc(N2CCN(C(=O)CSc3nc4ccccc4nc3N3CCCCC3)CC2)c1 measured with Cytochrome P450 2C19 (Homo sapiens) (UniProt P33261).
[reply] 79.1

[ask] Please indicate recorded inhibition of CCSC(C)CC1C/C(=N/O)c2c(C)noc2C1 (centres undefined) measured with Cytochrome P450 2C19 (Homo sapiens) (UniProt P33261).
[reply] 40.9

[ask] Please indicate recorded inhibition of CC1(C)Cc2c(sc3nc(SCC(=O)NCc4ccccc4)n(-c4ccccc4)c(=O)c23)CS1 measured with Cytochrome P450 2C19 (Homo sapiens) (UniProt P33261).
[reply] 1.8

[ask] Please indicate recorded inhibition of CC(C)(C)c1cc2cccnc2n1Cc1ccccc1 measured with Cytochrome P450 2C19 (Homo sapiens) (UniProt P33261).
[reply] 13.8

[ask] Please indicate recorded inhibition of CCOC(=O)N1CCN(Cc2nc(N)nc(Nc3ccc(C)cc3)n2)CC1 measured with Cytochrome P450 2C19 (Homo sapiens) (UniProt P33261).
[reply] 36.2

[ask] Please indicate recorded inhibition of Cc1ccc2oc(=O)c3cnn(CC(=O)N4CCN(c5ccccn5)CC4)c3c2c1 measured with Cytochrome P450 2C19 (Homo sapiens) (UniProt P33261).
[reply] 10.9

[ask] Please indicate recorded inhibition of N#Cc1ccc(Oc2cc(C(F)(F)F)nc(-c3ccccn3)n2)cc1 measured with Cytochrome P450 2C19 (Homo sapiens) (UniProt P33261).
[reply] 6.7

[ask] Please indicate recorded inhibition of CCCCc1cc(=O)oc2cc(C)cc(OCc3nn[nH]n3)c12 measured with Cytochrome P450 2C19 (Homo sapiens) (UniProt P33261).
[reply] 11.2

[ask] Please indicate recorded inhibition of FC(F)(F)c1cc(-c2ccco2)nc(N2CCOCC2)n1 measured with Cytochrome P450 2C19 (Homo sapiens) (UniProt P33261).
[reply] -16.1

[ask] Please indicate recorded inhibition of c1coc(-c2nc3nc4ccccc4n3nc2-c2ccco2)c1 measured with Cytochrome P450 2C19 (Homo sapiens) (UniProt P33261).
[reply] -23.4

[ask] Please indicate recorded inhibition of CCOC(=O)N1CCN(Cc2nc3c(c(=O)n(C)c(=O)n3C)n2Cc2ccccc2)CC1 measured with Cytochrome P450 2C19 (Homo sapiens) (UniProt P33261).
[reply] 30

[ask] Please indicate recorded inhibition of CCOC(=O)c1sc(NC(=O)c2cc(S(=O)(=O)N3CCOCC3)ccc2C)nc1C measured with Cytochrome P450 2C19 (Homo sapiens) (UniProt P33261).
[reply] 35.4

[ask] Please indicate recorded inhibition of CCCn1c(=NC(C)=O)c(C(=O)OCC)cc2c(=O)n3ccccc3nc21 measured with Cytochrome P450 2C19 (Homo sapiens) (UniProt P33261).
[reply] -6.3

[ask] Please indicate recorded inhibition of O=C1c2ccccc2C2=Nc3ccccc3SC(c3ccccc3F)C12 (centres undefined) measured with Cytochrome P450 2C19 (Homo sapiens) (UniProt P33261).
[reply] 8

[ask] Please indicate recorded inhibition of CCc1nnc(NC(=O)c2ccc(S(=O)(=O)NC3CCCCC3)cc2)s1 measured with Cytochrome P450 2C19 (Homo sapiens) (UniProt P33261).
[reply] 14.5

[ask] Please indicate recorded inhibition of O=C(Nc1cc2ccccc2oc1=O)C1CCCCC1 measured with Cytochrome P450 2C19 (Homo sapiens) (UniProt P33261).
[reply] 0.3

[ask] Please indicate recorded inhibition of Cc1cccc(NC(=O)C(C)N2C(=O)C3C4CC(C(Br)C4Br)C3C2=O)c1 (centres undefined) measured with Cytochrome P450 2C19 (Homo sapiens) (UniProt P33261).
[reply] 35

[ask] Please indicate recorded inhibition of Cn1c(=O)c2c(nc(NCCc3ccccc3)n2Cc2ccccc2)n(C)c1=O measured with Cytochrome P450 2C19 (Homo sapiens) (UniProt P33261).
[reply] 8.9

[ask] Please indicate recorded inhibition of CCCN(CCC)C(=O)C1c2ccccc2Oc2ccccc21 measured with Cytochrome P450 2C19 (Homo sapiens) (UniProt P33261).
[reply] 57.1
